B1: glmS ribozyme (parent)
chain: AUAAAAGCGCCAGAACUACAGAAAUGUAGUUGACGAGGAGGAGGUUUAUCGAAUUUUCGGCGGAUGCCUCCAAA

- Variants of: B1
- protocol.notes: self-cleavage kobs at 2500 uM GlcN6P; higher = faster cleavage; RNA array
- applied.conditions: with glucosamine-6-phosphate
Variants at the floor of the assay were thinned out.
Kindly return t if reported self-cleavage kobs at 2500 uM GlcN6P is no lower than 0.0002 s⁻¹; return f if it is lower.

{"mutant.code": "G40U C50G", "group.label": "f"}
{"mutant.code": "G29A A39U", "group.label": "t"}

// query # bool: self-cleavage kobs at 2500 uM GlcN6P of G7U G9U U47A >= 0.0002 s⁻¹
// result f

// query # bool: self-cleavage kobs at 2500 uM GlcN6P of G13U C50A U69G >= 0.0002 s⁻¹
// result f

// query # bool: self-cleavage kobs at 2500 uM GlcN6P of A33C U54G C71U >= 0.0002 s⁻¹
// result f

// query # bool: self-cleavage kobs at 2500 uM GlcN6P of U49C G51C G60C C68U >= 0.0002 s⁻¹
// result f
